Each record here notes measured glycan array binding signal (z-score).
- TARGET: Man(a1-2)Man(a1-3)[Man(a1-2)Man(a1-6)]Man(a1-6)[Man(a1-2)Man(a1-2)Man(a1-3)]Man
- ASSAY NAME: glycan array binding signal (z-score within array); higher = stronger binding
- SETTINGS: glycan notation: IUPAC condensed, linker removed
Only a selection was taken, and the strongest signals are over-represented in it overall.

[
  {
    "BINDER": "Eosinophil cationic protein (ECP) (Homo sapiens), P12724 (protein) MVPKLFTSQICLLLLLGLMGVEGSLHARPPQFTRAQWFAIQHISLNPPRCTIAMRAINNYRWRCKNQNTFLRTTFANVVNVCGNQSIRCPHNRTLNNCHRSRFRVPLLHCDLINPGAQNISNCTYADRPGRRFYVVACDNRDPRDSPRYPVVPVHLDTTI",
    "glycan array binding signal (z-score)": -0.174
  },
  {
    "BINDER": "ECA (Erythrina cristagalli), P83410 (protein) VETISFSFSEFEPGNDNLTLQGAALITQSGVLQLTKINQNGMPAWDSTGRTLYTKPVHMWDSTTGTVASFETRFSFSIEQPYTRPLPADGLVFFMGPTKSKPAQGYGYLGVFNNSKQDNSYQTLAVEFDTFSNPWDPPQVPHIGIDVNSIRSIKTQPFQLDNGQVANVVIKYDAPSKILHVVLVYPSSGAIYTIAEIVDVKQVLPDWVDVGLSGATGAQRDAAETHDVYSWSFQASLPE",
    "glycan array binding signal (z-score)": -0.091
  }
]
